test: qHTS Assay for Agonists of the Relaxin Receptor RXFP1: VEGF expression
settings: THP1 cells, VEGF mRNA qRT-PCR, 2 h; active compounds read high
Active and inactive are the calls of the source.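 Rule for the calls: active = fold change shows a rise in VEGF expression relative to GAPDH, above the control level; inconclusive = expression about equal to the control; inactive = no rise in relative expression.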
Quick reference for fold change among some compounds

{"compound": "CCOc1ccccc1C(=O)Nc1ccccc1C(=O)Nc1cccc(C(F)(F)F)c1", "fold change": "1.93 (active)"}
{"compound": "CC(C)Oc1ccccc1C(=O)Nc1ccccc1C(=O)Nc1cccc(S(=O)(=O)C(F)(F)F)c1", "fold change": "2.79 (active)"}
{"compound": "O=C(O)c1cc(-c2ccccc2)nn1CC1CC(c2cccnc2)=NO1 (stereo unspecified)", "fold change": "1.01 (inactive)"}
{"compound": "COc1ccccc1C(=O)Nc1ccccc1C(=O)Nc1cccc(S(=O)(=O)C(F)(F)F)c1", "fold change": "1.41 (active)"}
{"compound": "COc1ccccc1C(=O)Nc1ccccc1C(=O)Nc1cccc(SC(F)(F)F)c1", "fold change": "1.15 (active)"}
{"compound": "O=C(Nc1cccc(S(=O)(=O)C(F)(F)F)c1)c1ccccc1NC(=O)c1ccccc1OCC(F)(F)F", "fold change": "1.24 (active)"}
